assay: Growth inhibition of human HT-29 cells assessed as mitochondrial activity measured after 72 hrs by MTT assay; format: functional, cell-based; conditions: HT-29, 72 h
Observation Type: pIC50
Interpret pIC50 as the negative base-10 log of the concentration measured in mol/L.

Q: Request the reported pIC50 associated with `O=C(/C=C(/C=C/c1ccc(O)cc1)NC1CCCCC1)/C=C/c1ccc(O)cc1`
Result: 5.40

Q: // returns reported pIC50 for input `CC(=O)Oc1ccc(/C=C/C(=O)/C=C(/C=C/c2ccc(OC(C)=O)cc2)NCC(C)C)cc1`
Result: 4.86

Q: Consider the compound shown here: `COc1cc(/C=C/C(=O)/C=C(/C=C/c2ccc(O)c(OC)c2)NCC(C)C)ccc1O` What is its recorded pIC50?
Result: 4.61

Q: Please look up its pIC50: `CC(C)CNC(=C\C(=O)/C=C/c1ccc(O)cc1)/C=C/c1ccc(O)cc1`
Result: 4.70

Q: Tell me the measured pIC50 of `CCCNC(=C\C(=O)/C=C/c1ccc(O)c(OC)c1)/C=C/c1ccc(O)c(OC)c1` , please.
Result: 4.64

Q: For the compound shown here, `CCCCNC(=C\C(=O)/C=C/c1ccc(O)c(OC)c1)/C=C/c1ccc(O)c(OC)c1` , give the reported pIC50.
Result: 4.71

Q: GET /values?readout=pIC50&item= CCC(C)NC(=C\C(=O)/C=C/c1ccc(O)cc1)/C=C/c1ccc(O)cc1 (stereo unspecified)
Result: 4.89

----------
test system: EA.hy 926; assay: Effect on oxidative stress in human EAhy926 cells assessed as intracellular ROS level at 10 uM after overnight incubation by DCFH-DA staining based fluorescence assay relative to control; format: functional
Observation Type: Activity (%)
Reply with just the number (in %).

Q: // lookup Activity for CCC(C)NC(=C\C(=O)/C=C/c1ccc(O)c(OC)c1)/C=C/c1ccc(O)c(OC)c1 (configuration not stated)
Result: 184

Q: Name the reported Activity value associated with the compound `COc1cc(/C=C/C(=O)/C=C(/C=C/c2ccc(O)c(OC)c2)NC2CCCCC2)ccc1O`
Result: 191

Q: Which Activity reading was recorded for the compound `COc1cc(/C=C/C(=O)/C=C(/C=C/c2ccc(OC(C)=O)c(OC)c2)NC2CCCCC2)ccc1OC(C)=O` ?
Result: 113

Q: I am curious: what Activity value has been reported for `CCCCNC(=C\C(=O)/C=C/c1ccc(O)c(OC)c1)/C=C/c1ccc(O)c(OC)c1` ?
Result: 439

Q: Bench note: what Activity did `C=CCNC(=C\C(=O)/C=C/c1ccc(O)c(OC)c1)/C=C/c1ccc(O)c(OC)c1` show?
Result: 267

Q: Value lookup for Activity; key = `O=C(/C=C/c1ccc(O)cc1)CC(=O)/C=C/c1ccc(O)cc1`
Result: 103

Q: Recorded Activity for `COc1cc(/C=C/C(=O)/C=C(/C=C/c2ccc(OC(C)=O)c(OC)c2)NCC(C)C)ccc1OC(C)=O` , please?
Result: 240

----------
I'd appreciate it if you could supply Activity values for the items below.
tested on: EA.hy 926; assay: Effect on oxidative stress in human EAhy926 cells assessed as intracellular ROS level at 10 uM after overnight incubation by DCFH-DA staining based fluorescence assay relative to control; assay type: functional
Please state the figure in %; there is no need to write the unit.

Q: Could you tell me which Activity is on file for CCC(C)NC(=C\C(=O)/C=C/c1ccc(OC(C)=O)c(OC)c1)/C=C/c1ccc(OC(C)=O)c(OC)c1 (centres undefined) ?
Result: 105

Q: Given CCC(C)NC(=C\C(=O)/C=C/c1ccc(O)cc1)/C=C/c1ccc(O)cc1 (centres undefined) , state its recorded Activity.
Result: 414

Q: Quick check: Activity of `COc1cc(/C=C/C(=O)CC(=O)/C=C/c2ccc(OC(C)=O)c(OC)c2)ccc1OC(C)=O` ?
Result: 189

Q: GET /values?readout=Activity&item= `CC(C)CNC(=C\C(=O)/C=C/c1ccc(O)cc1)/C=C/c1ccc(O)cc1`
Result: 119

Q: Please look up its Activity: `COc1cc(/C=C/C(=O)/C=C(/C=C/c2ccc(O)c(OC)c2)NCC(C)C)ccc1O`
Result: 100

Q: What value of Activity has been reported for the following compound? `COc1cc(/C=C/C(=O)CC(=O)/C=C/c2ccc(O)c(OC)c2)ccc1O`
Result: 88

Q: Returns the measured Activity for the input compound. Input: `CC(=O)Oc1ccc(/C=C/C(=O)/C=C(/C=C/c2ccc(OC(C)=O)cc2)NCC(C)C)cc1`
Result: 53

Q: Need Activity of `O=C(/C=C(/C=C/c1ccc(O)cc1)NC1CCCCC1)/C=C/c1ccc(O)cc1` , thanks.
Result: 299

Q: Consider the compound `CCCNC(=C\C(=O)/C=C/c1ccc(O)c(OC)c1)/C=C/c1ccc(O)c(OC)c1` and give its measured Activity.
Result: 141
